# experimental-target: anti-CC49 variable region antibodies in the serum of patient six
# assay-name: HPLC, 125I-HuCC49 + serum + 5 Tg competitor; fewer complexes = competitor bound
reported-metric: percent of complexes
Remember to follow the number with its unit.

Challenge: Which percent of complexes value is on record for HuCC49 CDR variant L-1 (antibody, V domains shown) VH: QVQLVQSGAEVVKPGASVKISCKASGYTFTDHAIHWVKQNPGQRLEWIGYFSPGNDDFKYNERFKGKATLTADTSASTAYVELSSLRSEDTAVYFCTRSLNMAYWGQGTLVTVSS VL: DIVMSQSPDSLAVSLGERVTLNCKSSQSVLYSSNSKNYLAWYQQKPGQSPKLLIYWASARESGVPDRFSGSGSGTDFTLTISSVQAEDVAVYYCQQYYSYPLTFGAGTKLELK ?
Response given: 16.9%

Challenge: Another binder to look at: humanized monoclonal antibody HuCC49 (parental HuCC49) (antibody, V domains shown) VH: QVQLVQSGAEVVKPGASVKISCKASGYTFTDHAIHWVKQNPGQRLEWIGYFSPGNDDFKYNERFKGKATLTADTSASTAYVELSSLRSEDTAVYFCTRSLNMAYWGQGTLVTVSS VL: DIVMSQSPDSLAVSLGERVTLNCKSSQSLLYSGNQKNYLAWYQQKPGQSPKLLIYWASARESGVPDRFSGSGSGTDFTLTISSVQAEDVAVYYCQQYYSYPLTFGAGTKLELK
Response given: 1.5%

Challenge: Another binder to look at: HuCC49 CDR variant L-3 (antibody, V domains shown) VH: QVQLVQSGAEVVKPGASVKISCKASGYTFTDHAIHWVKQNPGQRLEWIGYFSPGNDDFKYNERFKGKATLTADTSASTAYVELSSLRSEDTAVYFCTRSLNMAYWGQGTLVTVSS VL: DIVMSQSPDSLAVSLGERVTLNCKSSQSLLYSGNQKNYLAWYQQKPGQSPKLLIYWASARESGVPDRFSGSGSGTDFTLTISSVQAEDVAVYYCQQYYSTPYSFGAGTKLELK
Response given: 33.5%

Challenge: Another binder to look at: HuCC49 CDR variant H-1 (antibody, V domains shown) VH: QVQLVQSGAEVVKPGASVKISCKASGYTFTSYAMHWVKQNPGQRLEWIGYFSPGNDDFKYNERFKGKATLTADTSASTAYVELSSLRSEDTAVYFCTRSLNMAYWGQGTLVTVSS VL: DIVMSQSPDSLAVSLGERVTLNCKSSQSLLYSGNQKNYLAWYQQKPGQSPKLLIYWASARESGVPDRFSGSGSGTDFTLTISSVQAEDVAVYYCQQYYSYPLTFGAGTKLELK
Response given: 5.8%

Challenge: Another binder to look at: HuCC49 CDR variant H-2 (antibody, V domains shown) VH: QVQLVQSGAEVVKPGASVKISCKASGYTFTDHAIHWVKQNPGQRLEWIGWINAGNGNTKYSQKFQGKATLTADTSASTAYVELSSLRSEDTAVYFCTRSLNMAYWGQGTLVTVSS VL: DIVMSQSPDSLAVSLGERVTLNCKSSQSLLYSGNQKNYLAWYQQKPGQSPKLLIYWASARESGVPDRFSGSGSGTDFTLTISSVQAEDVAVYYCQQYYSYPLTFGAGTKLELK
Response given: 29.7%
